# Target Of Assay: T1, recombinant human activated Factor VII (FVIIa) (human, UniProt P08709 61-212; P08709 213-466, ten glutamate residues of the Gla domain may be gamma-carboxylated)
# T1 construct: chains tethered by a disulfide bond; also called Factor VIIa; rFVIIa
# T1 sequence 1: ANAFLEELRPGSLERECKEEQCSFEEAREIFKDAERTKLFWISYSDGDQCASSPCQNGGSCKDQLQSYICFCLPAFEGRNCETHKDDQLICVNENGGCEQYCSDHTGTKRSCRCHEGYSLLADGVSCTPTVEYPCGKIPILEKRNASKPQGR
# T1 sequence 2: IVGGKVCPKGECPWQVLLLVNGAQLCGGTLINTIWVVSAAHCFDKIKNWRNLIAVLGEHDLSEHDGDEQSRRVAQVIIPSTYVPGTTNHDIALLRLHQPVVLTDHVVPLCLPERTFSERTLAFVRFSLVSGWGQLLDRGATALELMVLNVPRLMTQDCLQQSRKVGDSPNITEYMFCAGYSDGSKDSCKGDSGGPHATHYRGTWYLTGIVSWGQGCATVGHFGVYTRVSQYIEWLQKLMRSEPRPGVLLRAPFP
# Method Description: BLI (Fortebio)
What pKd was measured for each of the following?
Numbers only, as −log10 of the molar value.

For each of the binders below, note its pKd.
1. VH SEQ ID NO 610 / VL SEQ ID NO 438 (antibody, IgG4, V domains shown, humanized 11F2; IgG4 S228P/kappa) VH: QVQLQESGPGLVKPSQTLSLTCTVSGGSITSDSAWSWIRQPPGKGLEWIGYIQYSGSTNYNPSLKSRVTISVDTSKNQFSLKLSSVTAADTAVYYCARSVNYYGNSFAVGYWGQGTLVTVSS VL: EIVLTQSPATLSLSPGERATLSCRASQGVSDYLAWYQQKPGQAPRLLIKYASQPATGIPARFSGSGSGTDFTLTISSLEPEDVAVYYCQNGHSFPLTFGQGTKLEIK
2. VH SEQ ID NO 538 / VL SEQ ID NO 414 (antibody, IgG4, V domains shown, humanized 11F2; IgG4 S228P/kappa) VH: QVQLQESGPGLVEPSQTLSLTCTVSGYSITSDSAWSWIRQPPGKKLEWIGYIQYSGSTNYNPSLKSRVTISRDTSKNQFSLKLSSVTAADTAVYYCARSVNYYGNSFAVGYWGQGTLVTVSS VL: EIVLTQSPATLSLSPGERATLSCRASQGVSDYLAWYQQKPGQAPRLLIKYASQPATGIPARFSGSGSGTDFTLTISSLEPEDFAVYYCQNGHSFPLTFGQGTKLEIK
3. VH SEQ ID NO 594 / VL SEQ ID NO 486 (antibody, IgG4, V domains shown, humanized 11F2; IgG4 S228P/kappa) VH: QVQLQESGPGLVKPSDTLSLTCAVSGYSISSDSAWSWIRQPPGKKLEWIGYIQYSGSTNYNPSLKSRVTMSVDTSKNQFSLKLSSVTALDTAVYYCARSVNYYGNSFAVGPWGQGTLVTVSS VL: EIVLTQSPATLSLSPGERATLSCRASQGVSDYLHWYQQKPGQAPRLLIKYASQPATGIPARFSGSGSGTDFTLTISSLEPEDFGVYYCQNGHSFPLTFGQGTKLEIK
4. VH SEQ ID NO 546 / VL SEQ ID NO 374 (antibody, IgG4, V domains shown, humanized 11F2; IgG4 S228P/kappa) VH: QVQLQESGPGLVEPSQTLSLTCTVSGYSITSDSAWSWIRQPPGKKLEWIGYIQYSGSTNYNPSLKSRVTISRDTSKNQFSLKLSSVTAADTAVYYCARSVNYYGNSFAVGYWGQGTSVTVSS VL: EIVLTQSPATLSLSPGERATLSCRASQGLSDYLAWYQQKPGQAPRLLIKYTSQPATGIPARFSGSGSGTDFTLTISSLEPEDFAVYYCQNGHSFPLTFGQGTKLEIK
5. VH SEQ ID NO 554 / VL SEQ ID NO 382 (antibody, IgG4, V domains shown, humanized 11F2; IgG4 S228P/kappa) VH: QVQLQESGPGLVKPSDTLSLTCAVSGYSISSDSAWSWIRQFPGKGLEWIGYIQYSGSTNYNPSLKSRVTMSVDTSKNQFSLKLSSVTALDTAVYYCARSVNYYGNSFAVGPWGQGTLVTVSS VL: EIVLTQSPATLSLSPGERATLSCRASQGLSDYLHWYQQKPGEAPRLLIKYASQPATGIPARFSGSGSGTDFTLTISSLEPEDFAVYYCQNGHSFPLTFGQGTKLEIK

1: 6.21; 2: 8.16; 3: 7.48; 4: 8.17; 5: 7.68

These data points were gathered from patent US20220064329A1.
